Sourced from paper PMC10213797

I'd appreciate it if you could supply Papp at 4 h, 100 μmol/L values for the items below.
assay: BBB-PAMPA permeability; details: PAMPA, pH 7.4, BBB–PAMPA permeability Papp (mean ± SD), pH 7.4, 4 h, 25 °C, brain sink buffer

> print(dat)
                                   compound         measurement.kind  recorded.result
1  CC(C)(C)/[N+]([O-])=C/c1ccc2cccc(O)c2n1 [QN 18]  Papp at 4 h, 100 μmol/L  43.7 ×10⁻⁶ cm/s

Go through the list and state Papp at 4 h, 100 μmol/L for each entry.
1. [O-]/[N+](=C\c1ccc2cccc(O)c2n1)Cc1ccccc1 [QN 19]
2. C#CCN1CCN(CCCOc2cccc3ccc(C=O)nc23)CC1 [QN 32]
3. C#CCN1CCN(CCCOc2cccc3ccc(/C=[N+](\[O-])C(C)(C)C)nc23)CC1 [QN 15]

Given back:
1: ≥ 37.2 ×10⁻⁶ cm/s; 2: 50.3 ×10⁻⁶ cm/s; 3: 72.2 ×10⁻⁶ cm/s

====

target: hAChE (Homo sapiens, UniProt P22303)
Sequence (P22303 32-614): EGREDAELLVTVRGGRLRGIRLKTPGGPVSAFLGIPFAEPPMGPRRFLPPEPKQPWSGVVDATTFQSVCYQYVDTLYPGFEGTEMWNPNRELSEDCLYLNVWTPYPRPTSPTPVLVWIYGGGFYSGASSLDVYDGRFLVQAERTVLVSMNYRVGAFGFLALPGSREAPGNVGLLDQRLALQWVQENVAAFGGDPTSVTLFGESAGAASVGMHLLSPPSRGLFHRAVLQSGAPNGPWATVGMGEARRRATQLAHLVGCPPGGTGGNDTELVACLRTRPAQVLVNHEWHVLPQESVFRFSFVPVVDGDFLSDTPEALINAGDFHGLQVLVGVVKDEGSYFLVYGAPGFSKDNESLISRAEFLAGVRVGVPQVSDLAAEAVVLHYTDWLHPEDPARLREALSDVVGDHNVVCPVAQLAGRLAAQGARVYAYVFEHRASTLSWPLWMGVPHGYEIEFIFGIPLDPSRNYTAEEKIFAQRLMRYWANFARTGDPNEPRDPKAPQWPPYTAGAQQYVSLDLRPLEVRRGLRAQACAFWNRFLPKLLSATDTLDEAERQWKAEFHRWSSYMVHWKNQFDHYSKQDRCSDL
measurement-kind: pIC50
Numbers only, as −log10 of the molar value.

> print(dat)
                               given.smiles                         target.system  recorded.result
1  COc1cccc2cc(/C=[N+](\[O-])Cc3ccccc3)c(OCCCN3CCCCC3)nc12  hAChE (Homo sapiens, UniProt P22303)             4.40
2  CC(C)(C)/[N+]([O-])=C/c1cc2cccc(OCCCN3CCCCC3)c2nc1Cl  hAChE (Homo sapiens, UniProt P22303)             4.35

Asked: Recall the reported pIC50 of [O-]/[N+](=C\c1cc2cccc(OCCCN3CCCCC3)c2nc1Cl)Cc1ccccc1 on hAChE (Homo sapiens, UniProt P22303) and write it down.
Given back: 4.16

====

molecular target: hBChE (Homo sapiens); test: hBChE inhibition, Ellman's method; type: biochemical; settings: hBChE IC50, abstract
Sequence (P06276 29-602): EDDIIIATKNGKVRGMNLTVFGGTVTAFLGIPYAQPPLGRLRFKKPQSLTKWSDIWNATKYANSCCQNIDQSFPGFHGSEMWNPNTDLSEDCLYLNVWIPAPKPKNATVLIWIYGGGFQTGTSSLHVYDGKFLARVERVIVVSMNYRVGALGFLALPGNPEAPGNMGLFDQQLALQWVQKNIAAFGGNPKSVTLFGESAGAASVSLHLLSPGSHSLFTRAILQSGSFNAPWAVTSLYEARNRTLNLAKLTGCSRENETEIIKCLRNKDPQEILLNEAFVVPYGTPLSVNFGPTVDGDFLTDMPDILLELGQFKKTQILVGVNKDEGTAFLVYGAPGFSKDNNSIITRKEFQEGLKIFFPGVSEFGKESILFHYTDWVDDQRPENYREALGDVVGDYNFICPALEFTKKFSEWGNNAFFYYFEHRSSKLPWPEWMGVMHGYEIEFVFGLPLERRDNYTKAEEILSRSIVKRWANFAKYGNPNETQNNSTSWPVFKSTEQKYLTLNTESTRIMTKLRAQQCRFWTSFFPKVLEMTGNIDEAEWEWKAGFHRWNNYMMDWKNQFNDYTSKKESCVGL
measurement-kind: pIC50
Give bare numbers, as −log10 of the molar value.

Asked: Give pIC50 for the following compound: [O-]/[N+](=C\c1ccc2cccc(O)c2n1)Cc1ccccc1
Given back: 8.97

====

target: Aβ1–42 (Homo sapiens); assay: Aβ1–42 aggregation inhibition, ThT fluorescence assay; format: biochemical; conditions: 10 μmol/L ligand and 1.5 μmol/L Aβ1–42; mean ± SD (n ≥ 3)
Sequence (P05067 672-713): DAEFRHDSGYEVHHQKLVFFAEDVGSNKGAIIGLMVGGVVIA
measurement-kind: Inhibition of Aβ1–42 aggregation

Asked: Give Inhibition of Aβ1–42 aggregation for the following compound: C#CCN1CCN(CCCOc2cccc3ccc(C=O)nc23)CC1
Given back: 40.7 ± 2.4%∗
